Target: NUAK2 (h) (Homo sapiens, UniProt Q9H093)
Construct: This assay was done radiometrically using full-length, recombinant enzyme; purchased Eurofins
Sequence (Q9H093 whole entry): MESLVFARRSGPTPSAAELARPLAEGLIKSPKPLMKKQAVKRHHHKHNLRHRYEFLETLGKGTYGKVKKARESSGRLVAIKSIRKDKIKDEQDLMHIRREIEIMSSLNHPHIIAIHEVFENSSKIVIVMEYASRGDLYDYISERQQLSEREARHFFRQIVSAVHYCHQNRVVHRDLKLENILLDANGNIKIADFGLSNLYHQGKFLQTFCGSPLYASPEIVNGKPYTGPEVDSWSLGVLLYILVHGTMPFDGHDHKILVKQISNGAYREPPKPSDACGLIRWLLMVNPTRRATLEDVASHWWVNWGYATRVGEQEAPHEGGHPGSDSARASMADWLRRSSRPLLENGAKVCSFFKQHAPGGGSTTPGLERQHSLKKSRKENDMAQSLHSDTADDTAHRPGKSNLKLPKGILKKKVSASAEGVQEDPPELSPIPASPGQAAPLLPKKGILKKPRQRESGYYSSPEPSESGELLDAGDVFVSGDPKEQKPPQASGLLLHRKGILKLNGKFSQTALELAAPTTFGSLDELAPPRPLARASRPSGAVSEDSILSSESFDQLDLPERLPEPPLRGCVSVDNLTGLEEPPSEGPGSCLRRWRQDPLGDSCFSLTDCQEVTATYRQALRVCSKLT
Experiment: NUAK2 enzymatic assay (radiometric, Eurofins)
Type: biochemical
Details: full-length recombinant enzyme
property.label: IC50

Solved entries:
| compound | reported.measurement |
| --- | --- |
| C[C@H]1CN(c2ccc(Nc3ncc(C(F)(F)F)c(Nc4cccc5c4C(=O)NC5)n3)c(OC(F)F)c2)CCN1 [Compound I-50] | 0.0001 to 0.01 µM |
| O=C1NCc2cccc(Nc3nc(Nc4ccc(N5C[C@H]6CC[C@@H](C5)N6)cc4OC(F)F)ncc3Cl)c21 [Compound I-64] | 0.0001 to 0.01 µM |

The following compounds each have a reported value; give each one's IC50.
1. CC(C)N1CCN(C2CCN(c3ccc(Nc4ncc(Cl)c(Nc5cccc6c5C(=O)NC6)n4)c(OC(F)F)c3)CC2)CC1 [Compound I-81]
2. CN1CCN(c2ccc(Nc3ncc(Cl)c(Nc4cccc5c4C(=O)NC5)n3)c(OC(F)(F)F)c2)CC1 [Compound I-41]

Result:
["0.011 to 0.1 µM", "0.011 to 0.1 µM"]
